# Tested on: C. elegans
# test_settings: Table S2, C. elegans SS assay, 110 μM, 0 h, averages of 4 data points
Each entry below carries its reported Percentage of motility inhibition 0 h.
measured_quantity: Percentage of motility inhibition 0 h (%)

* CC(C)=C[C@@H]1CO[C@]23C[C@@]4(CO2)[C@@H](CC[C@@H]2[C@@]5(C)CC[C@H](O[C@H]6OC[C@H](O)[C@H](O[C@H]7O[C@H](COS(=O)(=O)O)[C@@H](O)[C@H](O)[C@H]7O)[C@H]6O[C@@H]6O[C@@H](CO)[C@H](O)[C@H]6O)C(C)(C)[C@@H]5CC[C@]24C)[C@H]3[C@@]1(C)O [Bacopaside I] | 19
* C[C@H](CCC(=O)[O-])[C@H]1CC[C@H]2[C@@H]3CC[C@@H]4C[C@H](O)CC[C@]4(C)[C@H]3C[C@H](O)[C@]12C.[Na+] [Deoxycholic acid sodium salt] | 0
* CC(C)=CCC[C@@](C)(O)[C@H]1CC[C@]2(C)[C@@H]1[C@H](O)C[C@@H]1[C@@]3(C)CC[C@H](O[C@@H]4O[C@H](CO)[C@@H](O)[C@H](O)[C@H]4O)C(C)(C)[C@@H]3CC[C@]12C [20(R)-Ginsenoside Rh2] | 11
* COc1cc(/C=C/C(=O)NCCc2c[nH]c3ccc(O)cc23)ccc1O [N‐Feruloylserotonin] | 11
* CC(C)C1=CC2C(CCC2(C)O)C(C)(O)CC1 (stereo not drawn) [1αH,5αH-Guaia-6-ene-4β,10β-diol] | 0

----------
# System: C. elegans
# protocol: microbe, parasite or virus in culture
# test_settings: Caenorhabditis elegans, 0 h, read-out: Percentage of motility inhibition 0 h, Table S2, C. elegans SS assay, 110 μM, 0 h, averages of 4 data points
measured_quantity: inhibition at 110 µM (%)

• COc1cc(O)c2c(=O)cc(-c3ccc(O)cc3)oc2c1 = 34
• C[C@H]1O[C@@H](O[C@H]2CC[C@@]3(C)[C@H](CC[C@@H]4[C@@H]3C[C@@H](O)[C@]3(C)[C@@H](C5=CC(=O)OC5)CC[C@]43O)C2)C[C@H](O)[C@@H]1O[C@H]1C[C@H](O)[C@H](O[C@H]2C[C@H](O)[C@H](O[C@@H]3O[C@H](CO)[C@@H](O)[C@H](O)[C@H]3O)[C@@H](C)O2)[C@@H](C)O1 [Deslanoside] = 5
• Cc1cc(NS(=O)(=O)c2ccc(N)cc2)no1 = 30
• CC(=O)OC[C@]12[C@H](OC(C)=O)[C@H](OC(C)=O)[C@@H]3[C@@H](OC(C)=O)[C@@]14O[C@@]3(C)COC(=O)c1cccnc1CCC(C)C(=O)O[C@@H]([C@H](OC(=O)c1ccco1)[C@@H]2OC(C)=O)[C@]4(C)O (stereo partly shown) = 12
• NCCc1c[nH]cn1 = 5
• N#C[C@H](O[C@@H]1O[C@H](CO[C@@H]2O[C@H](CO)[C@@H](O)[C@H](O)[C@H]2O)[C@@H](O)[C@H](O)[C@H]1O)c1ccccc1 = 13
• CC12CCC(C1)C(C)(C)C2O (stereo not shown) = 2
• CC1(C)CC[C@]2(C(=O)O)CC[C@]3(C)C(=CC[C@@H]4[C@@]5(C)CC[C@H](O)[C@@](C)(C=O)[C@@H]5CC[C@]43C)[C@@H]2C1 = 10
• O=c1cc(-c2ccc(O)cc2)oc2cc(O[C@@H]3O[C@H](CO)[C@@H](O)[C@H](O)[C@H]3O)c([C@@H]3O[C@H](CO)[C@@H](O)[C@H](O)[C@H]3O)c(O)c12 = 1
• C=C1C(=O)O[C@@H]2C[C@@]3(C)[C@@H](O)C[C@@H](O)C(=C)[C@@H]3C[C@H]12 = 4
• COC(=O)C1=CO[C@@H](O[C@@H]2O[C@H](CO)[C@@H](O)[C@H](O)[C@H]2O)[C@H]2[C@@H]1[C@H](O)C[C@]2(C)OC(C)=O = 12
• CCc1nn(CCO)c(CC)c1Oc1cc(C#N)cc(C#N)c1 = 18
• COc1cc2c(cc1OC)-c1c(OC)c(OC)cc3c1[C@H](C2)N(C)CC3 = 0
